assay type: in vivo, human; conditions: human, plasma, iv, 50 mg, AUC0‐∞, geometric mean (geometric CV, %), 50 mg IV, single dose, fasted
quantity kind: AUC (ng·h/mL)
Answers are plain numbers, in ng·h/mL.

INPUT: Please report AUC for the following molecule: `CN1CC[C@@H](NC(=O)Nc2ccc(C#N)cc2)C[C@@H]1c1nc2ccccc2[nH]1`
OUTPUT: 4880

====

assay type: in vivo, human; conditions: human, plasma, po, 100 mg, t½, arithmetic mean ± SD, 100 mg oral tablet, single dose, fasted
quantity kind: half-life (h)
Answers are plain numbers, in h.

INPUT: // Input: `CN1CC[C@@H](NC(=O)Nc2ccc(C#N)cc2)C[C@@H]1c1nc2ccccc2[nH]1` . Output its half-life only.
OUTPUT: 14.3

====

assay type: in vivo, human; details: human, plasma, iv, 50 mg, Cmax, geometric mean (geometric CV, %), 50 mg IV, single dose, fasted
quantity kind: Cmax (ng/mL)
Give bare numbers, in ng/mL.

INPUT: Fill in Cmax for record `CN1CC[C@@H](NC(=O)Nc2ccc(C#N)cc2)C[C@@H]1c1nc2ccccc2[nH]1`
OUTPUT: 665

====

assay type: in vivo, human; conditions: human, plasma, po, 100 mg, AUC0‐∞, arithmetic mean ± SD, 100 mg oral tablet, single dose, fasted
quantity kind: AUC (ng·h/mL)
Give bare numbers, in ng·h/mL.

INPUT: Indicate its recorded AUC; the molecule in question is `CN1CC[C@@H](NC(=O)Nc2ccc(C#N)cc2)C[C@@H]1c1nc2ccccc2[nH]1`
OUTPUT: 8160

====

type: in vivo, human; settings: human, plasma, iv, 50 mg, AUC0‐last, arithmetic mean ± SD, 50 mg IV, single dose, fasted
quantity kind: AUC (ng·h/mL)
Numbers only, in ng·h/mL.

INPUT: Dear colleague, please send me the reported AUC for `CN1CC[C@@H](NC(=O)Nc2ccc(C#N)cc2)C[C@@H]1c1nc2ccccc2[nH]1` when you can.
OUTPUT: 5120

====

assay type: in vivo, human; conditions: human, plasma, po, 100 mg, AUC0‐last, arithmetic mean ± SD, 100 mg oral tablet, single dose, fasted
quantity kind: AUC (ng·h/mL)
Numbers only, in ng·h/mL.

INPUT: Give AUC for the following compound: CN1CC[C@@H](NC(=O)Nc2ccc(C#N)cc2)C[C@@H]1c1nc2ccccc2[nH]1 [Glasdegib]
OUTPUT: 7990

From: paper PMC6850403
